- system_name: T1, Cynomolgus monkey BCMA (cynomolgus monkey)
- T1 construct: Soluble analyte in SPR; also called cyBCMA; Cyno BCMA
- assay_overview: SPR, IgG immobilised, cyno BCMA analyte
Provide the recorded log10 koff for the entries that follow.
All values: log10 koff [s⁻¹].

# count of solved cases: 4
binder	recorded_number
C01_Rd4_0.6nM_C16 (antibody, V domains shown, IgG) VH: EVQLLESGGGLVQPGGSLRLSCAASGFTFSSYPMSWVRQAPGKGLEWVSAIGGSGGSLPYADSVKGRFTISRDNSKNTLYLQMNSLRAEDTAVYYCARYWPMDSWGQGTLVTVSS VL: EIVLTQSPGTLSLSPGERATLSCRASQSVSSTYLAWYQQKPGQAPRLLIYDASSRAPGIPDRFSGSGSGTDFTLTISRLEPEDFAVYYCQQYSSWPLTFGQGTKVEIK	-2.33
A02_Rd4_6nM_C08 (antibody, V domains shown, IgG) VH: EVQLLESGGGLVQPGGSLRLSCAASGFTFSSYAMNWVRQAPGKGLEWVSAILDSGGSTYYADSVKGRFTISRDNSKNTLYLQMNSLRAEDTAVYYCARYWPMSPWGQGTLVTVSS VL: EIVLTQSPGTLSLSPGERATLSCRASQSVSFLYLAWYQQKPGQAPRLLMYDASIRATGIPDRFSGSGSGTDFTLTISRLEPEDFAVYYCQQYGSWPLTFGQGTKVEIK	-1.95
COMBO_Rd4_0.6nM_C23 (antibody, V domains shown, IgG) VH: EVQLLESGGGLVQPGGSLRLSCAASGFTFSSYPMSWVRQAPGKGLEWVSALFGSGGSTYYADSVKGRFTISRDNSKNTLYLQMNSLRAEDTAVYYCARYWPMDSWGQGTLVTVSS VL: EIVLTQSPGTLSLSPGERATLSCRPRQSVSSSYLAWYQQKPGQAPRLLMYDASIRATGIPDRFSGSGSGTDFTLTISRLEPEDFAVYYCQQYQDWPLTFGQGTKVEIK	-3.27
C01_Rd4_6nM_C20 (antibody, V domains shown, IgG) VH: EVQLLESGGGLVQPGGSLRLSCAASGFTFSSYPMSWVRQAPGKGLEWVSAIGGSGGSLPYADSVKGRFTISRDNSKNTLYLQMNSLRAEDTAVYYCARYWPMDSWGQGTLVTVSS VL: EIVLTQSPGTLSLSPGERATLSCRASQSVSPLYLAWYQQKPGQAPRLLIYDASSRAPGIPDRFSGSGSGTDFTLTISRLEPEDFAVYYCQQYSAFPLTFGQGTKVEIK	-2.20

Shifting focus to the binder that follows.
So for COMBO_Rd4_0.6nM_C02 (antibody, V domains shown, IgG) VH: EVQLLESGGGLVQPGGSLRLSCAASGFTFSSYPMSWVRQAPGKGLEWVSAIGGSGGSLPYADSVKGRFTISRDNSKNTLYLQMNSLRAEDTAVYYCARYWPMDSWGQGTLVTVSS VL: EIVLTQSPGTLSLSPGERATLSCRASIAVSSTYLAWYQQKPGQAPRLLMYDASIRATGIPDRFSGSGSGTDFTLTISRLEPEDFAVYYCQQYMVWPLTFGQGTKVEIK , the logged log10 koff turned out to be -3.31
